Source listed as ChEMBL document CHEMBL2034854.

molecules and their reported IC50
molecular target: Aminopeptidase N (Homo sapiens); test: Inhibition of APN in human ES2 cell surface using L-Leu-p-nitroanilide as substrate incubated for 5 mins prior to substrate addition measured after 1 hr by UV/VIS spectrophotometry
Sequence (P15144 whole entry): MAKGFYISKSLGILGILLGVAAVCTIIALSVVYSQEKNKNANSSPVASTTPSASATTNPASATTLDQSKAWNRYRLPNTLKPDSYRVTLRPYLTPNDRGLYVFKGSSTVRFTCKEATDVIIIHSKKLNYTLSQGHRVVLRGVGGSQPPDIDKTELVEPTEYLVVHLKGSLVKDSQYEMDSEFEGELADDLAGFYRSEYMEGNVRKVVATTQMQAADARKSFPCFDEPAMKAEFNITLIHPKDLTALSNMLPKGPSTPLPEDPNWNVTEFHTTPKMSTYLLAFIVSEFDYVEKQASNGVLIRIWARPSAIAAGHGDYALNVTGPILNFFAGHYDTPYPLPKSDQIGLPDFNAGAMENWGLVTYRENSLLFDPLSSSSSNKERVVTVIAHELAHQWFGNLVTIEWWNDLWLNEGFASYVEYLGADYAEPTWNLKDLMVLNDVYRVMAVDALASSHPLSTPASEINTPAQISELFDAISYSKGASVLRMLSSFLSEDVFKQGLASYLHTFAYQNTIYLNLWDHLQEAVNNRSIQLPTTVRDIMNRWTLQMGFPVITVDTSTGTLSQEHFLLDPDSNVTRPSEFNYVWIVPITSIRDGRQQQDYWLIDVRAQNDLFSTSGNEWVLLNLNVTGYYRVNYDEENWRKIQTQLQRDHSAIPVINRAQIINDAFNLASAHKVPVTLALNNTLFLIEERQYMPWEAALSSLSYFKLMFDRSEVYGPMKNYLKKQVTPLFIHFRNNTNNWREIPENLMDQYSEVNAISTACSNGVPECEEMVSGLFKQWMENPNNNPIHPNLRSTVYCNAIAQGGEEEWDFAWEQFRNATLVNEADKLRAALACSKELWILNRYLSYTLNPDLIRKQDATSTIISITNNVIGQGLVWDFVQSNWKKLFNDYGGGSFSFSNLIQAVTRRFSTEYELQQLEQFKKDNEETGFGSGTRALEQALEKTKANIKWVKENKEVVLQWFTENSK
Give a bare numeral; the unit µM is implied.

# count of solved cases: 3
q: Request the reported IC50 associated with "CC[C@H](C)[C@H](NC(=O)NCc1ccccc1)C(=O)NO"
a: 39

q: Also "CC(C)C[C@H](NC(=O)NCCc1ccccc1)C(=O)NO" ?
a: 5.1

q: Next: "CSCC[C@H](NC(=O)NCc1ccccc1)C(=O)NO"
a: 22

Field: next molecule
q: Entry "O=C(NCc1ccccc1)N[C@@H](Cc1ccccc1)C(=O)NO" has what IC50?
a: 16
